// reported EC50 for each item listed
Target: LXRβ ligand-binding domain (Homo sapiens, UniProt P55055, DUP175-175)
Construct: amino acids 156-461; NP009052; made in house; host or cells: E. coli
Sequence (P55055 with tags, fused parts or gaps DUP175-175 limits assumed): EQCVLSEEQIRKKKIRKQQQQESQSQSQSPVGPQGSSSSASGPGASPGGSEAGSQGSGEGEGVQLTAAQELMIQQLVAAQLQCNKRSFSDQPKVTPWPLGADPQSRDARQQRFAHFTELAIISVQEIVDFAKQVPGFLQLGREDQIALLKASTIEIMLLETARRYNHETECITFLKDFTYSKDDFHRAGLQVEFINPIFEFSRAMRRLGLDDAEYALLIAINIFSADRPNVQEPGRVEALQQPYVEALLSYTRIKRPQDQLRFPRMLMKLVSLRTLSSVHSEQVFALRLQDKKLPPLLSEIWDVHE
Test: TR-FRETβ activity assay (NCoA3 coactivator peptide recruitment)
Format: biochemical
Settings: TR-FRET, 1 μM 24(S)-25-epoxycholesterol prestimulation; read-out: FRETβ (EC50 range)
Protocol: The tested compounds were usually dissolved, tested and stored as 20 mM stock solutions in DMSO. Since sulfonyl acetic acid derivatives tend to decarboxylate under these conditions, these stock solutions were prepared, tested and stored as 20 mM DMSO stock solutions containing 100 mM trifluoroacetic Acid (5 equivalents). Sulfonyl acetic acid derivatives are shelf stable as solid at rt for long time as reported by Griesbrecht et al. (Synlett 2010:374) or Faucher et al. (J. Med. Chem. 2004; 47:18). […]
readout-name: EC50

Cc1ccc(S(=O)(=O)n2c(-c3cccc(N4CC(C(=O)O)C4)c3)c(-c3ccsc3C(F)(F)F)c3cc(F)ccc32)cc1 [3/30] ... 100 to 1000 nM
CC(C)(O)c1ccc(S(=O)(=O)n2c(-c3cccc(-c4ccc(C(=O)O)cc4Cl)c3)c(-c3ccccc3C#N)c3cc(F)ccc32)cc1 [30/16] ... 1000 to 10000 nM
Cn1ccc(-c2c(-c3cccc(-c4ccc(C(=O)O)cc4Cl)c3)n(S(=O)(=O)c3ccc(C(F)F)cc3)c3ccc(F)cc23)c1C#N [11/68] ... < 100 nM
N#Cc1cccc(C#N)c1-c1c(-c2cccc(-c3ccc(C(=O)O)cc3F)c2)n(S(=O)(=O)c2ccc(C(F)F)cc2)c2ccc(F)cc12 [11/51] ... < 100 nM
O=C(O)c1ccc(-c2cccc(-c3c(-c4ncccc4C(F)(F)F)c4cc(F)ccc4n3S(=O)(=O)c3ccc(C(F)F)cc3)c2)c(Cl)c1 [11/23] ... < 100 nM
Cc1ccc(S(=O)(=O)n2c(-c3cccc(N4CCC(C)(C(=O)O)CC4)c3)c(-c3ccsc3C#N)c3cc(F)ccc32)cc1 [3/50] ... 100 to 1000 nM
CC(=O)NS(=O)(=O)c1ccc(-c2cccc(-c3c(-c4c(C#N)cccc4C#N)c4cc(F)ccc4n3S(=O)(=O)c3ccc(C(F)F)cc3)c2)c(Cl)c1 [8/8] ... < 100 nM
O=C(O)c1ccc(-c2cccc(-c3c(-c4c(Cl)cccc4Cl)c4cc(F)ccc4n3S(=O)(=O)c3ccc(C(F)F)cc3)c2)c(Cl)c1 [11/13] ... < 100 nM
N#Cc1sccc1-c1c(-c2cccs2)n(S(=O)(=O)c2ccc(Cl)cc2)c2cc(OCCCC(=O)O)ccc12 [15/4] ... 1000 to 10000 nM
Cc1ccc(S(=O)(=O)n2c(-c3cccc(-c4ccc(CN)cc4Cl)c3)c(-c3ccsc3C#N)c3cc(F)ccc32)cc1 [2/1] ... 100 to 1000 nM
COC(=O)c1ccc(-c2cccc(-c3c(-c4c(C)cccc4C#N)c4cc(F)ccc4n3S(=O)(=O)c3ccc(C(F)F)cc3)c2)c(Cl)c1 [1/122] ... 100 to 1000 nM
Cc1ccc(S(=O)(=O)n2c(-c3cccc(-c4ccc(C(=O)O)cc4Cl)c3)c(-c3cccc(C)c3C#N)c3cc(F)ccc32)cc1 [11/2] ... < 100 nM
COc1cccnc1-c1c(-c2cccc(-c3ccc(C(=O)O)cc3Cl)c2)n(S(=O)(=O)c2ccc(C(F)F)cc2)c2ccc(F)cc12 [11/40] ... 100 to 1000 nM
N#Cc1nccnc1-c1c(-c2cccs2)n(S(=O)(=O)c2ccc(Cl)cc2)c2ccccc12 [20/7] ... 1000 to 10000 nM
Cc1ccc(S(=O)(=O)n2c(-c3cccc(-c4ccc(C(=O)O)nc4C)c3)c(-c3ccsc3C#N)c3cc(F)ccc32)cc1 [36/1] ... 100 to 1000 nM
N#Cc1cccc(C#N)c1-c1c(-c2cccc(-c3ccc(C(=O)O)cc3)c2)n(S(=O)(=O)c2ccc(C(F)F)cc2)c2ccc(F)cc12 [11/50] ... < 100 nM
N#Cc1sccc1-c1c(-c2cccs2)n(S(=O)(=O)c2ccc(Cl)cc2)c2cc(CCC(=O)O)c(O)cc12 [Example 17] ... > 10000 nM
Cc1ccc(S(=O)(=O)n2c(-c3cccc(C(C)(C)C(=O)O)c3)c(-c3ccsc3C#N)c3ccccc32)cc1 [3/20] ... 1000 to 10000 nM
N#Cc1sccc1-c1c(-c2ccccc2)n(S(=O)(=O)c2ccc(CC(=O)O)cc2)c2ccccc12 [27/1] ... 1000 to 10000 nM
N#Cc1sccc1-c1c(-c2cccc(N3CC(C(=O)O)C3)c2)n(S(=O)(=O)c2ccc(Cl)cc2)c2ccccc12 [30/7] ... 100 to 1000 nM
N#Cc1cccc(C#N)c1-c1c(-c2cccc(-c3ccc(C(=O)O)cc3Cl)c2)n(S(=O)(=O)C2CC3CCC2C3)c2ccc(F)cc12 (stereo not drawn) [11/66] ... 100 to 1000 nM
N#Cc1sccc1-c1c(-c2cccc(CCCC(=O)O)c2)n(S(=O)(=O)c2ccc(Cl)cc2)c2ccccc12 [30/5] ... 1000 to 10000 nM
Cc1ccc(S(=O)(=O)n2c(-c3cccc(-c4ccc(C(C)(C)C(=O)O)c(S(C)(=O)=O)c4)c3)c(-c3ccsc3C#N)c3cc(F)ccc32)cc1 [2/18] ... 100 to 1000 nM
N#Cc1cccc(C#N)c1-c1c(-c2cccc(-c3ccc(C(=O)O)cc3Cl)c2)n(S(=O)(=O)c2ccc(C(F)(F)F)nc2)c2ccc(F)cc12 [11/37] ... < 100 nM
N#Cc1sccc1-c1c(-c2cccc(-c3ccc(C(=O)O)cc3)c2)n(S(=O)(=O)c2ccc3c(c2)CCC3)c2ccc(F)cc12 [23/3] ... 100 to 1000 nM
N#Cc1cccc(C#N)c1-c1c(-c2cccc(-c3ccc(C(=O)NCC(=O)O)cc3Cl)c2)n(S(=O)(=O)c2ccc(C(F)F)cc2)c2ccc(F)cc12 [21/3] ... < 100 nM
Cc1cc(C)c(S(=O)(=O)n2c(-c3cccs3)c(-c3ccsc3C#N)c3ccccc32)c(C)c1 [1/26] ... 1000 to 10000 nM

###

assay: Short term HFD mouse model: plasma and liver exposure; type: in vivo, mice (C57BL/6J); conditions: HFD mice, three oral doses of 10 mg/kg, 4 h after last dose
readout-name: liver exposure 4 h

N#Cc1cccc(C#N)c1-c1c(-c2cccc([C@H]3CC[C@H](C(=O)O)CC3)c2)n(S(=O)(=O)c2ccc(C(F)F)cc2)c2ccc(F)cc12 ... C (1 μM to ≤10 μM)
N#Cc1cccc(C#N)c1-c1c(-c2cccc(-c3ccc(C(=O)O)cc3Cl)c2)n(S(=O)(=O)c2ccc(C(F)(F)F)nc2)c2ccc(F)cc12 ... C (1 μM to ≤10 μM)
N#Cc1cccc(C#N)c1-c1c(-c2cccc(-c3c(F)cc(C(=O)O)cc3F)c2)n(S(=O)(=O)c2ccc(C(F)F)cc2)c2ccc(F)cc12 ... C (1 μM to ≤10 μM)
N#Cc1cccnc1-c1c(-c2cccc(-c3ccc(C(=O)O)cc3Cl)c2)n(S(=O)(=O)c2ccc(C(F)F)cc2)c2ccc(F)cc12 ... C (1 μM to ≤10 μM)
N#Cc1cccc(C#N)c1-c1c(-c2cccc(-c3c(F)cc(CC(=O)O)cc3F)c2)n(S(=O)(=O)c2ccc(C(F)F)cc2)c2ccc(F)cc12 ... B (300 nM to ≤1 μM)
CS(=O)(=O)NC(=O)c1ccc(-c2cccc(-c3c(-c4c(C#N)cccc4C#N)c4cc(F)ccc4n3S(=O)(=O)c3ccc(C(F)F)cc3)c2)c(Cl)c1 ... B (300 nM to ≤1 μM)

###

molecular target: ligand-binding domain (LBD) of LXRβ (Homo sapiens, UniProt P55055, DUP175-175); construct: LXRβ (amino acids 156-461); expressed in transfected cells; host or cells: HEK293; assay: LXR Gal4 reporter transient transfection assay (LBD-M2H Gal4β); format: cell-based; details: HEK293 cells, LXRβ LBD; read-out: LBD-M2H Gal4β (EC50 range)
Sequence (P55055 with tags, fused parts or gaps DUP175-175 limits assumed): as above
readout-name: EC50

COc1ccc(S(=O)(=O)n2c(-c3ccccc3)c(-c3ccsc3OC)c3ccccc32)cc1 ... 100 to 1000 nM
N#Cc1sccc1-c1c(-c2cncs2)n(S(=O)(=O)c2ccc(Cl)cc2)c2ccccc12 ... < 100 nM
N#Cc1sccc1-c1c(-c2cc(Cl)cc(C3CC3C(=O)O)c2)n(S(=O)(=O)c2ccc(Cl)cc2)c2ccccc12 (stereo not shown) ... < 100 nM
N#Cc1ccc(OCC(=O)O)cc1-c1c(-c2cccs2)n(S(=O)(=O)c2ccc(Cl)cc2)c2ccccc12 ... 1000 to 10000 nM
N#Cc1sccc1-c1c(-c2cccs2)n(S(=O)(=O)c2ccc(CCC(=O)O)cc2)c2ccccc12 ... < 100 nM
Cc1ccc(S(=O)(=O)n2c(-c3cccc(-c4cncc(C(C)(C)C(=O)O)c4)c3)c(-c3ccsc3C#N)c3ccccc32)cc1 ... 100 to 1000 nM
N#Cc1sccc1-c1c(-c2cccc(C3CC3C(=O)O)c2)n(S(=O)(=O)c2ccc(Cl)cc2)c2ccccc12 (stereo not shown) ... < 100 nM
